B1: Gamma-crystallin D, residues 90 to 170; numbered along this chain, P07320 (parent)
chain: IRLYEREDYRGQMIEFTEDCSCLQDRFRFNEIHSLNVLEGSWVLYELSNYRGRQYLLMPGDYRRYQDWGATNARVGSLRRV

# Variants of: B1
# assay_notes: abundance fitness (aPCA) (normalised: wild type 0, dead -1); higher = more abundant; growth selection in yeast, the domain comes from the species named
# condition_notes: Homo sapiens
Please use the following abundance fitness ranges when assigning a class: bin A = under -0.2, bin B = from -0.2 up to -0.06, bin C = -0.06 and over

Before answering, review these 4 worked examples.
{"mutation_descriptor": "I32R", "label_value": "bin B"}
{"mutation_descriptor": "I32Q", "label_value": "bin A"}
{"mutation_descriptor": "E31C", "label_value": "bin B"}
{"mutation_descriptor": "D19N", "label_value": "bin C"}

Query: Hi there! Could you help me figure out the category for H33R please?
Result: bin C

Query: Assign a category based on measured abundance fitness for W42N and give only the class name.
Result: bin A
